These entries and their values trace back to PubChem BioAssay (Tox21).

experimentalDetails: qHTS assay to identify small molecule agonists of the estrogen related receptor (ERR) signaling pathway from Tox21 library (AID 1224849); further: on the % scale 0 is the no-effect control and ±100 the full control effect; nearly all actives have a fitted effect of over 15% in size
conditions: ERR reporter cell line, ONE-Glo luciferase, 18 h; at 92.4 µM (top of the series)
Active and inactive are the calls of the source. The call rests on the fitted dose curve.
attributeMeasured: activity change, positive = activation

- compound: "Nc1ccc(O)cc1"
  result: "-66.4% (inactive)"
- compound: "CN(C)c1ccc2nc3ccc(=[N+](C)C)cc-3sc2c1"
  result: "-71.3% (inactive)"
- compound: "C[N+]1([O-])CCOCC1"
  result: "-0.0985% (inactive)"
- compound: "CC1=CC(=O)c2ccccc2C1=O"
  result: "-78.8% (inactive)"
- compound: "NC(N)=Nc1nc(CSCC/C(N)=N/S(N)(=O)=O)cs1"
  result: "4.57% (inactive)"
- compound: "CCCCN(CCO)CCCC"
  result: "1.42% (inactive)"
- compound: "C=CC(=O)OCCCCCCCC"
  result: "2.1% (inactive)"
- compound: "Cc1cc(OCCOCC[N+](C)(C)Cc2ccccc2)ccc1C(C)(C)CC(C)(C)C"
  result: "-79.5% (inactive)"
- compound: "CCCCCC(=O)O[C@]1(C(C)=O)CC[C@H]2[C@@H]3CCC4=CC(=O)CC[C@]4(C)[C@H]3CC[C@@]21C"
  result: "-61% (inactive)"
- compound: "CC(=O)CC(C)=O"
  result: "3.5% (inactive)"
- compound: "COc1ccc(CCN2CCC(Nc3nc4ccccc4n3Cc3ccc(F)cc3)CC2)cc1"
  result: "-76.4% (inactive)"
- compound: "CN1C(=O)c2ccc([N+](=O)[O-])cc2C1=O"
  result: "7.36% (inactive)"
- compound: "CC(C)CCOCc1ccccc1"
  result: "4.72% (inactive)"
- compound: "Cc1ccc(S(=O)(=O)Oc2ccc(N=Nc3ccc(-c4ccc(N=Nc5c(O)ccc6cc(S(=O)(=O)O)cc(S(=O)(=O)O)c56)c(C)c4)cc3C)cc2)cc1"
  result: "-34.2% (inactive)"
- compound: "O=Cc1ccc(Cl)cc1"
  result: "-1.47% (inactive)"
- compound: "CCCC(=O)c1ccccc1"
  result: "1.85% (inactive)"
- compound: "O=C(O)CCc1ccccc1"
  result: "0.886% (inactive)"
- compound: "CCOC(=O)C(C)C(C)=O (centres undefined)"
  result: "5% (inactive)"
- compound: "C=CS(=O)(=O)O"
  result: "-0.911% (inactive)"
